- protocol-notes: viability loss of HPDE-C7K cells – cell-based, fluorescence, HTS, primary screen (AID 431);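 also: 0% = DMSO solvent wells and 100% = doxorubicin-treated wells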
- test-context: HPDE-C7K KRASV12 cells, Alamar Blue viability, 48 h; at 10 µM
In all, about 63,000 compounds went through this assay and about 1,100 (1.7%) were called active.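 The calls were made as follows: active = compounds whose percent cytotoxicity in the single-dose primary screen, scaled between solvent and toxic-drug controls, exceeds 50; inactive = the rest.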 The entries come from a sample that favours actives as a whole. Potency and affinity values are given separately.
Possible outcomes: active, inactive

compound=O=C(CSc1nnc(Cc2ccccc2)o1)N1CCc2ccccc21 assigned_category=inactive
compound=CCc1oc(C(=O)O)cc1CN(CC)CC assigned_category=inactive
compound=CSc1cccc(NC(=O)CSc2nc3ccccc3o2)c1 assigned_category=inactive
compound=CN(C)C=C1C(=O)c2ccccc2C1=O assigned_category=inactive
compound=COc1ccccc1-c1nnc2n1N=C(C)CS2 assigned_category=inactive
compound=COc1ccc2c(C)nc(Nc3nc(C)cc(=O)[nH]3)nc2c1 assigned_category=active
compound="NC(=O)CSc1nnc(CNc2ccc(F)cc2)n1CC1CCCO1 (stereo not drawn)" assigned_category=inactive
compound=CCc1c(C)nc2cc(-c3ccc(OC)c(OC)c3)nn2c1N1CCCC1 assigned_category=inactive
compound=CCc1c(C)nc2ncnn2c1NCCc1ccc(OC)cc1 assigned_category=active
compound=CCOc1ccc(C2=Nn3c(nnc3-c3ccc(OC)cc3)SC2)cc1 assigned_category=inactive
compound=Cc1ccc(-c2nnc3n2N=C(c2ccccc2)CS3)cc1 assigned_category=inactive
compound=Clc1ccc(-c2nnc(-c3ccc(Br)o3)o2)c(Cl)c1 assigned_category=inactive
compound=COc1ccc(-c2oc3ncnc(NCCN4CCOCC4)c3c2-c2ccc(OC)cc2)cc1 assigned_category=inactive
compound=CCOc1ccc(NC(=O)N2CCC(n3c(=O)[nH]c4ccccc43)CC2)cc1 assigned_category=inactive
compound=c1ccc(-c2oc3ncnc(NCCCN4CCOCC4)c3c2-c2ccccc2)cc1 assigned_category=active
compound=COc1ccc(C2=Nn3c(nnc3-c3ccccc3)SC2)cc1OC assigned_category=inactive
compound=Cc1ccc2c(C)nc(Nc3nc(CSc4nnnn4-c4ccccc4)cc(=O)[nH]3)nc2c1 assigned_category=active
compound=Cc1ccc(Nc2nc(CSc3nnnn3-c3ccccc3)cs2)cc1 assigned_category=inactive
compound=CN(C)/C=C1/Sc2ccccc2C1=O assigned_category=inactive
compound="CCC(C)[C@@H](C(=O)Nc1ccc(OC)c(OC)c1)N1Cc2ccccc2C1=O (stereo partly drawn)" assigned_category=inactive
compound=CCn1cc(C(=O)NCCc2ccccc2)c(=O)c2cc(F)c(N3CCN(C)CC3)cc21 assigned_category=active
compound="COc1ccc(-c2nnc(SCC(=O)Nc3sc4c(c3C#N)CCC4)n2CC2CCCO2)cc1 (stereo not drawn)" assigned_category=inactive
compound=CCOc1ccc(C2=Nn3c(nnc3-c3ccccc3OC)SC2)cc1 assigned_category=active

* * *

- protocol-notes: viability loss of HPDE-C7K cells – cell-based, fluorescence, HTS, primary screen (AID 431);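 also: 0% = DMSO solvent wells and 100% = doxorubicin-treated wells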
- test-context: HPDE-C7K KRASV12 cells, Alamar Blue viability, 48 h; at 10 µM; stronger effect = higher value
Among all 63,000 compounds or so, about 1,100 (1.7%) were called active. Only a selection was taken, and actives are over-represented in it overall. Entries with a potency or affinity are not part of this list.
Catalogue of cytotoxicity values
reported-property: cytotoxicity

molecule=CC(C)(C)NC(=O)Cn1c(SCC(=O)N2CCCCCC2)nc2ccccc21 reported_property=cytotoxicity observed="-0.2% (inactive)"
molecule=COc1ccc(CN2CCN(S(=O)(=O)c3ccc(NC(C)=O)cc3)CC2)cc1OC reported_property=cytotoxicity observed="-2.4% (inactive)"
molecule=COc1ccc(OC)c(NC(=O)c2cc3ccccc3o2)c1 reported_property=cytotoxicity observed="-12.4% (inactive)"
molecule=COc1cccc(-c2nc(CS(=O)(=O)CC(=O)NCCC(C)C)c(C)o2)c1 reported_property=cytotoxicity observed="2.6% (inactive)"
molecule=C/C=C(\CS(=O)(=O)c1ccccc1)S(=O)(=O)c1ccccc1 reported_property=cytotoxicity observed="42.2% (inactive)"
molecule=CCc1nc(OCCN(C)C)c2oc3ccccc3c2n1 reported_property=cytotoxicity observed="-2.7% (inactive)"
molecule="N=c1n(CCN2CCCC2)c2ccccc2n1CC(O)c1ccco1 (stereo not given)" reported_property=cytotoxicity observed="-3.9% (inactive)"
molecule=CC(=O)Nc1cc(-c2nn3c(C)nnc3s2)ccc1C reported_property=cytotoxicity observed="6.7% (inactive)"
molecule="CC1CC(=O)N(Cc2ccccc2)c2ccccc2N1C=O (stereo not given)" reported_property=cytotoxicity observed="7.1% (inactive)"
molecule=COc1ccc(S(=O)(=O)N(CC(=O)O)Cc2ccccc2)cc1OC reported_property=cytotoxicity observed="1.8% (inactive)"
molecule=COc1c(Br)cc(Br)cc1/C=N/n1c(C)nnc1C reported_property=cytotoxicity observed="11.1% (inactive)"
molecule="CCCCCCOC(=O)C1=C(C)NC(=O)NC1c1ccc(O)cc1 (stereo not given)" reported_property=cytotoxicity observed="-1.4% (inactive)"
molecule="CCc1[nH]nc2c1C(C(C)C)C(C#N)=C(N)O2 (stereo not given)" reported_property=cytotoxicity observed="-20.8% (inactive)"
molecule=O=C(CN(Cc1ccco1)C(=O)CNS(=O)(=O)c1ccccc1)NCc1ccc(F)cc1 reported_property=cytotoxicity observed="2.2% (inactive)"
molecule=O=C(NCc1ccco1)c1cc2ccccc2o1 reported_property=cytotoxicity observed="7.8% (inactive)"

* * *

- protocol-notes: viability loss of HPDE-C7K cells – cell-based, fluorescence, HTS, primary screen (AID 431);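 also: 0% = DMSO solvent wells and 100% = doxorubicin-treated wells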
- test-context: HPDE-C7K KRASV12 cells, Alamar Blue viability, 48 h; at 10 µM; stronger effect = higher value
Screen size: about 63,000 compounds; about 1,100 (1.7%) were called active. The sample as a whole holds a higher share of actives than the screen did. Potency and affinity values are given separately.
reported-property: cytotoxicity (%)

compound=O=C(c1cccs1)N1CCOCC1 unit_of_measure=% observed=-26.6
compound=CC(=O)O[C@]1(C(C)=O)CC[C@H]2[C@@H]3C[C@H](C)C4=CC(=O)CC[C@]4(C)[C@H]3CC[C@@]21C unit_of_measure=% observed=3.4
compound=COc1cccc(NC(=O)c2ccccc2-c2nc(-c3ccccc3)no2)c1 unit_of_measure=% observed=25.4
compound=Cn1c(NCCCO)nc2c(c1=O)C1(CCCCC1)Cc1ccccc1-2 unit_of_measure=% observed=51.9
compound=Cc1cc2c(N=O)c(NO)ccc2[nH]1 unit_of_measure=% observed=79.2
compound=O=C(CCN1CCN(c2ccccc2F)CC1)Nc1ccccc1F unit_of_measure=% observed=-5.4
compound="Cn1c(=O)[nH]c(=O)c2c1nc(N1CCOCC1)n2CC(O)COc1ccccc1 (configuration not stated)" unit_of_measure=% observed=-14.2
compound="Cc1ccccc1OCC(O)Cn1c(SC(C)C)nc2c1c(=O)[nH]c(=O)n2C (configuration not stated)" unit_of_measure=% observed=-16.9
compound=CCCCC(=O)O[C@]1(C(=O)CO)CC[C@H]2[C@@H]3CCC4=CC(=O)CC[C@]4(C)[C@H]3[C@@H](O)C[C@@]21C unit_of_measure=% observed=-3.2
compound=CC1(C)Cc2ccccc2-c2nc(NCCO)n(-c3ccccc3)c(=O)c21 unit_of_measure=% observed=-9.1
compound=Nc1ccc2c(c1)-c1ccccc1S(=O)(=O)N2 unit_of_measure=% observed=16.8
compound="Cc1ccccc1OCC(O)Cn1c(N2CCN(c3ccccc3)CC2)nc2c1c(=O)[nH]c(=O)n2C (configuration not stated)" unit_of_measure=% observed=78.8
compound=COC(=O)c1ccc2[nH]c(C)cc(=O)c2c1 unit_of_measure=% observed=-3.5
compound=CN(c1ccccc1C(=O)NCc1ccco1)S(C)(=O)=O unit_of_measure=% observed=3.4
compound="CCSc1nc2c(c(=O)[nH]c(=O)n2C)n1CC(O)COc1ccccc1C (configuration not stated)" unit_of_measure=% observed=-11.9
compound="CC1CCc2c(nc3ncnn3c2N2CCN(c3ccccc3F)CC2)C1 (configuration not stated)" unit_of_measure=% observed=-5.6
compound=COc1nc(-c2ccccc2)ccc1-c1noc(-c2ccco2)n1 unit_of_measure=% observed=-3

* * *

- protocol-notes: viability loss of HPDE-C7K cells – cell-based, fluorescence, HTS, primary screen (AID 431);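 also: 0% = DMSO solvent wells and 100% = doxorubicin-treated wells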
- test-context: HPDE-C7K KRASV12 cells, Alamar Blue viability, 48 h; at 10 µM
Hit rate of the full screen: of about 63,000 compounds, about 1,100 (1.7%) were called active.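 Rule for the calls: active = compounds whose percent cytotoxicity in the single-dose primary screen, scaled between solvent and toxic-drug controls, exceeds 50; inactive = the rest.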 For the sample, actives were picked, then their nearest neighbours and some compounds at random. Results with a measured potency or affinity are listed apart.
Possible outcomes: active, inactive

compound="CC1CCc2nn(CC(=O)NCCN3CCOCC3)cc2C1 (stereo not given)" assigned_category=inactive
compound=COCc1nc2ccccc2n1CCOc1ccccc1OC assigned_category=inactive
compound=O=C(c1cccc(Cl)c1)N1CCN(c2ccccn2)CC1 assigned_category=inactive
compound=COc1cccc(CNc2nc3ccccc3n2CCN2CCCCC2)c1 assigned_category=inactive
compound=C=CCn1cnc2c(c1=O)c1nc3ccccc3nc1n2-c1ccc(C)cc1 assigned_category=inactive
compound=O=c1c2ccccc2nc(SCc2ccccc2)n1Cc1ccco1 assigned_category=inactive
compound=CCn1c(NC2CCCCC2)nc2ccccc21 assigned_category=inactive
compound=CCOC(=O)CSc1nc2ccccc2c(=O)n1Cc1ccco1 assigned_category=inactive
compound=COCCn1cnc2c(c1=O)c1nc3ccccc3nc1n2/N=C/c1cccc(OC)c1OC assigned_category=inactive
compound=CCOC(=O)c1cc2c(c(CSc3nc4ccccc4c(=O)n3Cc3ccco3)c1)OCOC2 assigned_category=active
compound=C=CCn1cnc2c(c1=O)c1nc3ccccc3nc1n2/N=C/c1cccc(OC)c1OC assigned_category=active
compound=C/C=C/Cn1c(SCc2ccc(Cl)cc2)nc2c1c(=O)[nH]c(=O)n2C assigned_category=inactive
compound=O=C(CSc1nc2ccccc2c(=O)n1Cc1ccco1)NCc1ccccc1 assigned_category=active
compound=O=C(c1cccc(COc2ccc(Cl)cc2Cl)c1)N1CCN(c2ccccn2)CC1 assigned_category=active
compound=O=C(CCCOc1ccc(Cl)cc1Cl)N1CCN(c2ccccn2)CC1 assigned_category=inactive
compound=C/C=C/Cn1c(SCc2ccc(C)cc2)nc2c1c(=O)[nH]c(=O)n2C assigned_category=active
compound=O=C(CSc1nnc(-c2cc3ccccc3cc2O)n1Cc1ccco1)c1ccc(F)cc1 assigned_category=inactive
compound=Cc1nc(CN2CCN(C(=O)NC3(c4ccccc4)CC3)CC2)cs1 assigned_category=inactive
compound=CCn1c(SCC(=O)Nc2ccc(N3CCOCC3)c(Cl)c2)nnc1-c1ccc(N)cc1 assigned_category=inactive
compound=COc1ccc(C(=O)CSc2nnc(-c3ccccn3)n2Cc2ccco2)cc1 assigned_category=inactive
